Each recorded value in this set is attributed to patent US20060257938A1.

experiment: Probe fluorescence ratio response to stearic acid relative to ADIFAB2; format: binding; details: Table 5
outcome.measure: ΔR/DRAΔ2 SA
# output: bare number, no unit

Find the recorded ΔR/DRAΔ2 SA belonging to L2P12C5: FABP probe, substitutions M18I G31I F55M A73I vs SEQ ID NO: 2 (protein, listed as Rattus norvegicus, PEPTIDE (1)...(131) wild-type rat intestinal fatty acid binding protein) AFDGTWKVDRNENYEKFIEKMGINVVKRKLIAHDNLKLTITQEGNKFTVKESSNMRNIDVVFELGVDFAYSLIDGTELTGTWTMEGNKLVGKFKRVDNGKELIAVREISGNELIQTYTYEGVEAKRIFKKE and report it.
0.4

Next record, please: L2P21C1: FABP probe, substitutions M18I G31Y A73V vs SEQ ID NO: 2 (protein, listed as Rattus norvegicus, PEPTIDE (1)...(131) wild-type rat intestinal fatty acid binding protein) AFDGTWKVDRNENYEKFIEKMGINVVKRKLYAHDNLKLTITQEGNKFTVKESSNFRNIDVVFELGVDFAYSLVDGTELTGTWTMEGNKLVGKFKRVDNGKELIAVREISGNELIQTYTYEGVEAKRIFKKE
1.6
